Source: patent US20200181117A1

Tested on: Viola tricolor
Assay: Pre-emergence herbicidal action
Type: in vivo
Conditions: 1280 g/ha, scored visually after about 3 weeks vs untreated controls
What herbicidal activity on Viola tricolor was measured for each of the following?
A number alone suffices; assume %.

Challenge: Return herbicidal activity on Viola tricolor for the following compound: Cc1c(Sc2ccccc2)c(Oc2ncccn2)nn1C
Response given: 100

Challenge: Return herbicidal activity on Viola tricolor for the following compound: Cc1c(Sc2cccc(Cl)c2)c(Oc2ncc(F)cn2)nn1C
Response given: 100

Challenge: Return herbicidal activity on Viola tricolor for the following compound: CCc1c(Sc2ccccc2)c(Oc2ncc(F)cn2)nn1C
Response given: 100

Challenge: Return herbicidal activity on Viola tricolor for the following compound: Cn1cc(Sc2ccc(F)cc2)c(Oc2ncc(Cl)cn2)n1
Response given: 100

Challenge: Return herbicidal activity on Viola tricolor for the following compound: CCn1cc(Sc2ccccc2)c(Oc2ncc(Cl)cn2)n1
Response given: 90

Challenge: Return herbicidal activity on Viola tricolor for the following compound: CCc1c(Sc2cccc(Cl)c2)c(Oc2ncccn2)nn1C
Response given: 100

###

System: Amaranthus retroflexus
Test: Post-emergence herbicidal action
Type: in vivo
Conditions: 1280 g/ha, rated visually after about 3 weeks vs untreated controls
Observation type: herbicidal activity on Amaranthus retroflexus (%)
A number alone suffices; assume %.

Challenge: Return herbicidal activity on Amaranthus retroflexus for the following compound: Cc1c(Sc2cccc(C(F)(F)F)c2)c(Oc2ncccn2)nn1C
Response given: 90

Challenge: Return herbicidal activity on Amaranthus retroflexus for the following compound: Cc1c(Sc2ccc(F)cc2Cl)c(Oc2ncccn2)nn1C
Response given: 100

Challenge: Return herbicidal activity on Amaranthus retroflexus for the following compound: COc1cnc(Oc2nn(C)c(C)c2Sc2ccc(Cl)cc2)nc1
Response given: 80

Challenge: Return herbicidal activity on Amaranthus retroflexus for the following compound: COc1cnc(Oc2nn(C)c(C)c2Sc2ccc(F)cc2Cl)nc1
Response given: 100

Challenge: Return herbicidal activity on Amaranthus retroflexus for the following compound: Cc1c(Sc2ccccc2)c(Oc2ncc(F)cn2)nn1C
Response given: 100
